Attribution: patent US20110021487A1

- Tested system: adenosine A2b receptor (Homo sapiens, UniProt P29275)
- Construct: expressed in transfected cells; host or cells: CHO (Chinese Hamster Ovary)
- Experiment notes: Indirect determination of adenosine agonism by gene expression (luciferase reporter), A2b cells
- Assay type: cell-based
- Run parameters: CHO cells stably transfected with A2b receptor cDNA; 50% of maximum stimulation
Observation type: EC50 (nM)

[[record]]
molecule = "N#Cc1c(N)nc(SCc2cscn2)c(C#N)c1-c1ccc(O[C@H]2CCCC[C@@H]2O)cc1"
experimental_result = 16

[[record]]
molecule = "N#Cc1c(N)nc(SCc2cccc(C(N)=O)c2)c(C#N)c1-c1ccc(OC2CCOC2)c(F)c1 (stereo not shown)"
experimental_result = 1010

[[record]]
molecule = "N#Cc1ccccc1CSc1nc(N)c(C#N)c(-c2ccc(O[C@H]3CCCC[C@@H]3O)cc2)c1C#N (single isomer, unassigned)"
experimental_result = 6.9

[[record]]
molecule = "N#Cc1c(N)nc(SCc2cccc(C(N)=O)c2)c(C#N)c1-c1ccc(OC2CCOC2)cc1 (stereo not shown)"
experimental_result = 537


---

- Tested system: adenosine A2b receptor (Homo sapiens)
- Construct: expressed in transfected cells; host or cells: CHO (Chinese Hamster Ovary)
- Sequence (P29275 1-332): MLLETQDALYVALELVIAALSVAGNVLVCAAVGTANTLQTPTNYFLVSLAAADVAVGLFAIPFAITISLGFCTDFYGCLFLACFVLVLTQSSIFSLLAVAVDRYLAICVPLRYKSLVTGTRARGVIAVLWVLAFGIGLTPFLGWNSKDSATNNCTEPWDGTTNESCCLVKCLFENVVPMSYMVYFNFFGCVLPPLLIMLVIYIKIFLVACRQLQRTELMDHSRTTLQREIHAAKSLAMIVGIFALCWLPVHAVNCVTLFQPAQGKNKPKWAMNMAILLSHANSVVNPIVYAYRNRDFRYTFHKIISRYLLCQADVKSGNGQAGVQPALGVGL
- Experiment notes: Indirect determination of adenosine agonism by gene expression (luciferase reporter), A2b cells
- Assay type: cell-based
- Run parameters: CHO cells stably transfected with A2b receptor cDNA; 50% of maximum stimulation
pEC50: −log10 of the molar value.
Observation type: pEC50

[[record]]
compound = "CC(Sc1nc(N)c(C#N)c(-c2ccc(OC3CCOC3)cc2)c1C#N)c1cccc(C(N)=O)c1 (single isomer, unassigned; ent-3) [Example 66]"
experimental_result = 5.75

[[record]]
compound = "N#Cc1c(N)nc(SCc2cccnc2)c(C#N)c1-c1ccc(O[C@H]2CCC[C@H]2O)cc1 (racemic) [Example 41]"
experimental_result = 7.96

[[record]]
compound = "N#Cc1c(N)nc(SCc2csc(N)n2)c(C#N)c1-c1ccc(O[C@H]2CCCC[C@@H]2O)cc1 [Example 9]"
experimental_result = 8.41


---

- Tested system: adenosine A1 receptor (Homo sapiens)
- Construct: expressed in transfected cells; host or cells: CHO (Chinese Hamster Ovary)
- Sequence (P30542 whole entry): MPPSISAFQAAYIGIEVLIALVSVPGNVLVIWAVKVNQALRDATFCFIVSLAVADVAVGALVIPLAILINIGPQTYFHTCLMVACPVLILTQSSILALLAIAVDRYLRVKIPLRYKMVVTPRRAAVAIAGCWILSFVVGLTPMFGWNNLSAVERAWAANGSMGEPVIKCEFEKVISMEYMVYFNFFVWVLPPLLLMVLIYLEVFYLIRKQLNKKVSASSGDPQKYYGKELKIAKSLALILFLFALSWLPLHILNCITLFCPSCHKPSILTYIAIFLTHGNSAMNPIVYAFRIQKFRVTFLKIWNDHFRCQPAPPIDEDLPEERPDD
- Experiment notes: Indirect determination of adenosine agonism by gene expression (luciferase reporter), A1 cells
- Assay type: cell-based
- Run parameters: CHO cells stably transfected with A1 receptor cDNA; 1 μM forskolin; 50% inhibition of luciferase answer
Documented EC50 across a set of compounds
Observation type: EC50

[[record]]
compound = "N#Cc1c(N)nc(SCc2cccnc2)c(C#N)c1-c1ccc(O[C@H]2CCC[C@H]2O)cc1 (racemic)"
experimental_result = "2.9 nM"

[[record]]
compound = "N#Cc1c(SCc2csc(-c3ccc(Cl)cc3)n2)nc(N2CC(O)C2)c(C#N)c1-c1ccc(O[C@H]2COC[C@@H]2O)cc1 (single isomer, unassigned)"
experimental_result = "0.18 nM"

[[record]]
compound = "N#Cc1c(N)nc(SCc2csc(-c3ccc(Cl)cc3)n2)c(C#N)c1-c1ccc(O[C@H]2COC[C@@H]2O)cc1 (racemic)"
experimental_result = "0.14 nM"

[[record]]
compound = "CNC(=O)c1cc(CSc2nc(N)c(C#N)c(-c3ccc(OC4CCOC4)cc3)c2C#N)ccn1 (stereo not shown)"
experimental_result = "0.08 nM"

